// provenance: ChEMBL document CHEMBL1123529

Target Desc: Substance-P receptor (Cavia porcellus) (UniProt P30547)
Sequence (P30547 whole entry): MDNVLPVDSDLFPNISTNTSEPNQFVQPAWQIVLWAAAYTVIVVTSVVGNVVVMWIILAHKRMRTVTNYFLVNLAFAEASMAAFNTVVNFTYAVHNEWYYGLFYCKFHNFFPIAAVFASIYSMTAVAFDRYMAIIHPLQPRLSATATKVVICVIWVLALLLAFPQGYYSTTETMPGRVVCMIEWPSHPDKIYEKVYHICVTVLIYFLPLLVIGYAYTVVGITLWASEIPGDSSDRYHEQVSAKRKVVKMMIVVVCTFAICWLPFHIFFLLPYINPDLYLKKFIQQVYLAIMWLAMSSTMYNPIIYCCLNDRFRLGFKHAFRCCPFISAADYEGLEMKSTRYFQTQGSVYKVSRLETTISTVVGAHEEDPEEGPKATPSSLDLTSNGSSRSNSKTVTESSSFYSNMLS
Assay Comment: Evaluated in vitro for percent agonist activity in guinea pig ileum (substance P receptor)
Assay type: functional, tissue-based
Property Measured: SP (%)
Dear colleague, please return just the value in %, with no unit written.

In the examples that follow, each entry is paired with its recorded SP.
CSCC[C@@H](NC(=O)[C@H](CC(C)C)NC(=O)[C@@H](Cc1c[nH]c2ccccc12)NC(=O)[C@H](Cc1c[nH]c2ccccc12)NC(=O)[C@@H](Cc1c[nH]c2ccccc12)NC(=O)[C@H](CCC(N)=O)NC(=O)[C@H](CCC(N)=O)NC(=O)[C@@H]1CCCN1C(=O)[C@H](CCCCN)NC(=O)[C@@H]1CCCN1C(=O)[C@@H](N)CCCN=C(N)N)C(=O)O :: 0
COC(=O)[C@@H](CCSC)NC(=O)[C@H](CC(C)C)NC(=O)CNC(=O)[C@H](Cc1ccccc1)NC(=O)[C@H](Cc1ccccc1)NC(=O)[C@@H](NC(=O)[C@H](NC(=O)[C@@H]1CCCN1C(=O)[C@H](CCCCN)NC(=O)[C@@H]1CCCN1C(=O)[C@@H](N)CCCN=C(N)N)C(C)C)C(C)C :: 0.005
COC(=O)[C@@H](CCSC)NC(=O)[C@H](CC(C)C)NC(=O)CNC(=O)[C@H](Cc1ccccc1)NC(=O)[C@H](Cc1ccccc1)NC(=O)[C@@H]1CCCN1C(=O)[C@H]1CCCN1C(=O)[C@@H]1CCCN1C(=O)[C@H](CCCCNC(=O)OCc1ccccc1)NC(=O)[C@@H]1CCCN1C(=O)[C@H](CCCN=C(N)N)NC(=O)OCc1ccccc1 :: 0.004
CSCC[C@@H](NC(=O)[C@H](CC(C)C)NC(=O)CNC(=O)[C@H](Cc1ccccc1)NC(=O)[C@H](Cc1ccccc1)NC(=O)[C@@H](NC(=O)[C@H](NC(=O)[C@@H]1CCCN1C(=O)[C@H](CCCCN)NC(=O)[C@@H]1CCCN1C(=O)[C@@H](N)CCCN=C(N)N)C(C)C)C(C)C)C(=O)O :: 6.4
COC(=O)[C@H](CCSC)NC(=O)[C@@H]1CCCN1C(=O)[C@H]1CCCN1C(=O)[C@H](Cc1ccccc1)NC(=O)[C@H](Cc1ccccc1)NC(=O)[C@H](CCC(N)=O)NC(=O)[C@H](CCC(N)=O)NC(=O)[C@@H]1CCCN1C(=O)[C@H](CCCCNC(=O)OCc1ccccc1)NC(=O)[C@@H]1CCCN1C(=O)[C@H](CCCN=C(N)N)NC(=O)OCc1ccccc1 :: 0
COC(=O)[C@H](CCSC)NC(=O)[C@@H]1CCCN1C(=O)[C@H]1CCCN1C(=O)[C@H](Cc1ccccc1)NC(=O)[C@H](Cc1ccccc1)NC(=O)[C@H](CCC(N)=O)NC(=O)[C@H](CCC(N)=O)NC(=O)[C@@H]1CCCN1C(=O)[C@@H](CCCCNC(=O)OCc1ccccc1)NC(=O)[C@H]1CCCN1C(=O)[C@@H](CCCN=C(N)N)NC(=O)OCc1ccccc1 :: 0

-- ask Given the compound CSCC[C@H](NC(=O)[C@H](CC(C)C)NC(=O)CNC(=O)[C@H](Cc1ccccc1)NC(=O)[C@H](Cc1ccccc1)NC(=O)[C@H](CCC(N)=O)NC(=O)[C@H](CCC(N)=O)NC(=O)C1CCCN1C(=O)[C@H](CCCCN)NC(=O)C1CCCN1C(=O)[C@@H](N)CCCN=C(N)N)C(N)=O (stereo in doubt) , what is its reported SP?
-- reply 15

-- ask Given the compound COC(=O)[C@@H](CCSC)NC(=O)[C@H](CC(C)C)NC(=O)CNC(=O)[C@H](Cc1ccccc1)NC(=O)[C@H](Cc1ccccc1)NC(=O)[C@H](Cc1ccccc1)NC(=O)[C@@H](Cc1ccccc1)NC(=O)[C@@H]1CCCN1C(=O)[C@H](CCCCN)NC(=O)[C@@H]1CCCN1C(=O)[C@@H](N)CCCN=C(N)N , what is its reported SP?
-- reply 0
